# Test system: Plasmodium falciparum
# Experiment Notes: Antimalarial activity against chloroquine-resistant Plasmodium falciparum FCR3 infected in human erythrocytes assessed as inhibition of parasite growth incubated for 48 hrs by [3H]-hypoxanthine incorporation assay
# Assay type: functional, organism-based
pIC50: −log10 of the molar value.
Endpoint Name: pIC50

1) COc1cc([C@@H]2c3cc(Br)ccc3NC3(C(=O)Nc4ccccc43)[C@H]2C)ccc1O (some centres not stated) | 5.82
2) COc1cc([C@@H]2c3cc(Cl)ccc3NC3(C(=O)Nc4ccccc43)[C@H]2C)ccc1O (some centres not stated) | 5.78

---

# Tested on: Plasmodium falciparum
# Experiment Notes: Antimalarial activity against Plasmodium falciparum TM90C2B assessed as inhibition of parasite growth
# Format: functional, organism-based
pIC50: −log10 of the molar value.
Endpoint Name: pIC50

1. FC1CCN(CCOc2ccc(C3CCC4(CC3)OOC3(OO4)C4CCCC3CCC4)cc2)CC1 (stereo unspecified) | 8.14
